Target: Shc-PTB domain (Homo sapiens)
Sequence (P29353 111-583): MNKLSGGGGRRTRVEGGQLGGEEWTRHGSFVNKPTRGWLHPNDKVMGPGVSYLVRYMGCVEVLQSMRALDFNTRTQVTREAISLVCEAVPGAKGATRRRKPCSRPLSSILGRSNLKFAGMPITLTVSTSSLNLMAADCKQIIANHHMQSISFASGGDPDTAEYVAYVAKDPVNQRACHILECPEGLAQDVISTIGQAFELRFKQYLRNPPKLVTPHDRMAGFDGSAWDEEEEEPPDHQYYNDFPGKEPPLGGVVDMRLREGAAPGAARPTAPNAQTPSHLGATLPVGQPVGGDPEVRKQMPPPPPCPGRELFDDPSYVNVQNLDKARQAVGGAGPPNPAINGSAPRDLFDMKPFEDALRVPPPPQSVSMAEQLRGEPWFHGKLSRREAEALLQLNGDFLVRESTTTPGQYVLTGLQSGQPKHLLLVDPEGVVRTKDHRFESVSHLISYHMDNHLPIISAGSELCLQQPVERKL
Experiment: Octet RED 384 binding to p52Shc protein (p52Shc lacking PTB domain as reference)
Settings: 10 pM to 100 uM, 24 point titration, Octet RED 384
measurement-kind: EC50 (µM)

>>> value_reported("COc1cc2ncnc(Nc3ccc(Oc4ccccc4)cc3)c2cc1OC")
3

----------
Target: Shc-PTB domain (Homo sapiens)
Assay: Octet RED 384 binding to p52Shc protein (p52Shc lacking PTB domain as reference)
Conditions: 10 pM to 100 uM, 48 point titration, Octet RED 384
pEC50: −log10 of the molar value.
measurement-kind: pEC50

>>> value_reported("COC1=C(OC)C(=O)C(CCCCCCCCCCO)=C(C)C1=O [idebenone]")
8.92
